- System: Candida albicans
- experimental.protocol: Antimicrobial activity against Candida albicans ATCC 90028 biofilm at 1 % after 1 hr by MTT assay relative to control
- Assay type: functional
Short version: inhibition (INH) at least 40% is class 1, less is class 0.

// below: answered compounds
>>> print(df.to_string())
                                   compound    group
0  COc1ccc(CN2CC(CO)=C(O[Si](C)(C)C(C)(C)C)C2=O)cc1  class 0
1  CCOC(=O)C1=C(OC)C(=O)N(C(=O)C(NC(=O)OC(C)(C)C)C(C)C)C1 (stereo unspecified)  class 0
2  CCOC(=O)C1=C(OCc2ccccc2)C(=O)N(Cc2ccc(OC)cc2)C1  class 0
3    CCOC(=O)C1=C(O)C(=O)N(Cc2ccc(OC)cc2)C1  class 1

Inquiry: Does inhibition (INH) meet or surpass 40% for COc1ccc(CN2CC(CO)=C(OCc3ccccc3)C2=O)cc1 ?
Reply text: class 0

Inquiry: Next up: CCOC(=O)C1=C(OCc2ccccc2)C(=O)NC1
Reply text: class 1

Inquiry: Now the same for CCOC(=O)C1=C(OCc2ccccc2)C(=O)N(C(=O)[C@@H](N)C(C)C)C1.O=C(O)C(F)(F)F
Reply text: class 0

Inquiry: Same question, CCCCCCCCCCC1=C(O[Si](C)(C)C(C)(C)C)C(=O)N(Cc2ccc(OC)cc2)C1 this time
Reply text: class 0

Inquiry: Another: CCOC(=O)C1=C(OCc2ccccc2)C(=O)N(C(=O)C(NC(=O)OC(C)(C)C)C(C)C)C1 (stereo unspecified)
Reply text: class 1

Inquiry: Can you handle CCCCCCCC/C=C/C1=C(OCc2ccccc2)C(=O)N(Cc2ccc(OC)cc2)C1 next?
Reply text: class 1

Inquiry: Do the same for CCOC(=O)C1=C(O[Si](C)(C)C(C)(C)C)C(=O)N(Cc2ccc(OC)cc2)C1 please
Reply text: class 0
